- testDescription: Repeat once-weekly IV dose toxicokinetics in dogs
- Assay type: in vivo
- condition: male, dog, in vivo, iv, 9.3 mg/kg, dogs M, 9.3 mg/kg once-weekly IV, Day 0
measureName: AUC(0-t)

Q) State the recorded AUC(0-t) for this entry: CC1(C)C(=CC=C2CCCC(C=CC3=[N+](CCCCS(=O)(=O)[O-])c4ccc(S(=O)(=O)O)cc4C3(C)C)=C2Oc2ccc(CC(NC(=O)c3ccc(NCc4cnc5nc(N)[nH]c(=O)c5n4)cc3)C(=O)O)cc2)N(CCCCS(=O)(=O)O)c2ccc(S(=O)(=O)O)cc21 (stereo not shown)
A) 58000 ng·h/mL
